Provenance of the data: ChEMBL document CHEMBL2396607

TEST TARGET: Phosphatidylinositol 4,5-bisphosphate 3-kinase catalytic subunit delta isoform (Homo sapiens)
Sequence (O00329 whole entry, canonical isoform): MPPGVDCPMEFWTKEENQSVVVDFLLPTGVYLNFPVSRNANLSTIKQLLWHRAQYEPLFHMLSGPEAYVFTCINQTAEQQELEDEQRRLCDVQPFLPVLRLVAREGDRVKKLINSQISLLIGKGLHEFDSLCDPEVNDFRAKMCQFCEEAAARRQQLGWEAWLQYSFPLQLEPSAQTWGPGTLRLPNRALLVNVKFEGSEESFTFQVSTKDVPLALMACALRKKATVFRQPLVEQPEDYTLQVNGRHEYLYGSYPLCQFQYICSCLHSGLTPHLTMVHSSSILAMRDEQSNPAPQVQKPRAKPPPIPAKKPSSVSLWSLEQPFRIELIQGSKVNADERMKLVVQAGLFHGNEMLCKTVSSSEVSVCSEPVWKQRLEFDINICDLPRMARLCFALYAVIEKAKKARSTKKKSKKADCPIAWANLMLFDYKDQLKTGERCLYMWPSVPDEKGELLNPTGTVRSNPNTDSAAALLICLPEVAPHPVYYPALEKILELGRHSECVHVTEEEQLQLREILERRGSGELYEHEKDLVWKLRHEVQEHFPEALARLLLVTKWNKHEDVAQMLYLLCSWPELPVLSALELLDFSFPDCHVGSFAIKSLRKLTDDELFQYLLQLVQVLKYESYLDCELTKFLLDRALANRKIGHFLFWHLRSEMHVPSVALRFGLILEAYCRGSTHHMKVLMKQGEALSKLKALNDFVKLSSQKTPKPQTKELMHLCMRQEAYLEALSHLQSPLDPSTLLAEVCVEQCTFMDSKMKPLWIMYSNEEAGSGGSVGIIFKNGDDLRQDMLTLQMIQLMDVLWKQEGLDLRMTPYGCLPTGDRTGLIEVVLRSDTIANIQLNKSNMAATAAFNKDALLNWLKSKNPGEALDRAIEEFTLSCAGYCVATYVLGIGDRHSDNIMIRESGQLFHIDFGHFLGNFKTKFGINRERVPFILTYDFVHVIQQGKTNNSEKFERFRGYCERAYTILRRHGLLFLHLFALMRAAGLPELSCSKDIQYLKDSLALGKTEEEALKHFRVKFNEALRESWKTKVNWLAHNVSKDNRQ
ASSAY NAME: Inhibition of N-terminal myristoylated P110delta (unknown origin)-mediated AKT phosphorylation at Ser473 expressed in rat Rat1 cells by ELISA
Assay type: cell-based
MEASURE: pIC50
Hey, just a heads up that pIC50 is the negative log base 10 of the concentration in molar.

INSERT INTO results (sample_smiles, numeric_result) VALUES
  ('CNC(=O)[C@@H]1CCCN1C(=O)Nc1nc(C)c(-c2ccnc(C(C)(C)C)c2)s1', 5.24),
  ('Cc1nc(NC(=O)N2CCC[C@H]2C(N)=O)sc1-c1ccnc(C(C)(C)C)c1', 6.14),
  ('Cc1nc(NC(=O)N2CCC[C@H]2C(N)=O)sc1-c1ccc(-n2cccn2)cc1', 6.21);

Exercise: May I ask what pIC50 has been recorded for Cc1nc(NC(=O)N2CCC[C@H]2C(N)=O)sc1-c1ccnc(C(C)C)n1 ?
Solution: 5.89

Exercise: Quick check: pIC50 of CC(C)(c1cc(-c2cnc(NC(=O)N3CCC[C@H]3C(N)=O)s2)ccn1)C(F)(F)F ?
Solution: 5.54

Exercise: pIC50 lookup needed for Cc1nc(NC(=O)N2CCCC2)sc1-c1ccnc(C(C)(C)C)c1 , thanks.
Solution: 6.11

Exercise: Could you tell me which pIC50 is on file for Cc1nc(NC(=O)N2CC[C@H]2C(N)=O)sc1-c1ccnc(C(C)(C)C)n1 ?
Solution: 5.80
